# System: Human immunodeficiency virus 1
# procedure_text: Inhibition of HIV-1 replication in human peripheral blood mononuclear cells.
# Assay type: functional, organism-based

- smiles_code: "[N-]=[N+]=N[C@H]1C[C@H](n2cc(O)c(=O)[nH]c2=O)O[C@@H]1CO"
  EC50: "~10 µM"
- smiles_code: "[N-]=[N+]=N[C@H]1C[C@H](n2cc(C(F)(F)F)c(=O)[nH]c2=O)O[C@@H]1CO"
  EC50: "> 100 µM"
- smiles_code: "CN(C)c1cn([C@H]2C[C@H](N=[N+]=[N-])[C@@H](CO)O2)c(=O)[nH]c1=O"
  EC50: "> 100 µM"

----------
# Test system: Human immunodeficiency virus 1
# procedure_text: Inhibition of HIV-1 replication in human peripheral blood mononuclear cells.
# Format: functional, organism-based
This section presents compounds with their documented EC50 values.
reported_metric: EC50

- smiles_code: "CSc1cn([C@H]2C[C@H](N=[N+]=[N-])[C@@H](CO)O2)c(=O)[nH]c1=O"
  experimental_system: "Human immunodeficiency virus 1"
  reported_metric: "EC50"
  reported_value: "> 100 µM"
- smiles_code: "C=CCOc1cn([C@H]2C[C@H](N=[N+]=[N-])[C@@H](CO)O2)c(=O)[nH]c1=O"
  experimental_system: "Human immunodeficiency virus 1"
  reported_metric: "EC50"
  reported_value: "> 100 µM"
- smiles_code: "Cc1nn([C@H]2C[C@H](N=[N+]=[N-])[C@@H](CO)O2)c(=O)[nH]c1=O"
  experimental_system: "Human immunodeficiency virus 1"
  reported_metric: "EC50"
  reported_value: "> 100 µM"
